Hey, just so you know, these numbers are from patent US20220119522A1.

target: T1, human TREM2 truncated stalk peptide (aa 149-163) (human, also: biotinylated (site not given here)); test: ELISA on biotinylated peptide captured by streptavidin; A450 normalised to isotype control
T1 construct: also called Human TREM2 peptide (aa 149-163); truncated stalk peptide containing the ADAM10/17 cleavage site
T1 peptide: SFEDAHVEHSISRSL
No end group written: not given here.
As shown below, each of these binders has a reported fold over background (A450) value.
The figure you give is taken to be in fold; do not add the unit.

Consider the reported fold over background (A450) for these binders:
binder	assay.metric	observed.measurement
CL0020195 (antibody, V domains shown, also called Clone CL0020195) VH: EVQLVESGGGLVQPGRSMMLSCSASGFTFSNYHMAWVRQAPTTGLEWVASITTGSGNTYYRHSVKGRFTISRDNAKSTLYLQMDSLRSEDTASYYCARRWYGGYEGYYFDYWGQGVMVTVSS VL: DIQMTQSPSLLSASVGDRVTLSCKAGQNVNNYLAWYQQKLGEAPKLLIYNANILQTGFPSRFSGTGSGTDFTLTISSLQPEDVATYFCQQYNSWTTFGGGTKLELK	fold over background (A450)	1.1
CL0020164 (antibody, V domains shown, also called Clone CL0020164) VH: EVKLLESGGGLVQPGGSLRLSCAASGFTFTDFYMSWIRQPPGKAPEWLGVIRNKANGFTTEYNTSVKGRFTISRDYTQNILHLQTNTLRAEDTAIYYCARLTYGFDYWGQGVMVTVSS VL: DIVMTQGALPNPVPSGESASITCQSSKSLLHSNGKTYLNWYLQRPGQSPQFLIYWMSTRASGVSDRFSGSGSGTDFTLKISSVEAEDVGVYYCQQFLELPFTFGSGTKLEIK	fold over background (A450)	1.4
CL0020173 (antibody, V domains shown, also called Clone CL0020173) VH: EVKLLESGGGLVQPGSSMRLSCAASGFTFTDFYMNWIRQPAGRAPEWLGFFRNIVDGYTTEYNPSVKGRFTISRDNTQNMLYLQMNTLRAEDTATYYCARSGYSSYIYGGTFAYWGQGTLVTVSS VL: ETVMTQSPTSMSTSIGERVTLNCKASQSVGIHVDWYQQTPGQSPKLLIYGASNRHTGVPDRFTGSGFGRDFTLTISNVEAEDLAVYYCLQYGSIPWTFGGGTKLELK	fold over background (A450)	1.2
CL0020215 (antibody, V domains shown, also called Clone CL0020215) VH: QVQLQQPGAELVKPGASVKMSCKASGYTFTNYWIMWVKQRPGQGLEWIGDIYPSSGSTNYNEKFKNRATLTVDTSSNTAYMQLSSLTSEDSAVYFCSREGYGISAWGQGTTLTVSS VL: QIVLTQSPAIMSASPGEKVTITCSASSSVSYMHWFQQKPGTSPKLWIYSTSNLASGVPARFSGSGSGTSCSLTISRMEAEDAATYYCQQRSSFPLTFGAGTKLELK	fold over background (A450)	1.1

Query binder follows.
Reported fold over background (A450) ( CL0020186 (antibody, V domains shown, also called Clone CL0020186) VH: EVQLVESGGGLVQPGRSLKLSCPASGFTFSYYGMAWVRQAPTKGLEWVASISTGGGNTYYRDSVKGRFTISRDNAKNTLYLQMDSLRSEDTATYYCARGDIGTAYWFTYWGQGTLVTVSS VL: NIQLTQSPSLLSASVGDRVTLSCKGSQNINNYLAWYQQKLGEAPKLLIYKTNSLLTGIPSRFSGSGSGTDYTLTISSLHSEDLATYYCYQYNNGWTFGGGTKLELK ) = 1.3
